Below, each of the molecules is paired with its reported inhibition at 1 µM value.
Molecular target: hDGAT1 (Homo sapiens)
Construct: host or cells: Sf9 insect cells (baculovirus); microsomal preparation
Test: In-vitro DGAT1 assay (hDGAT1 microsomes from Sf9 cells, 14C oleoyl CoA, triglyceride formation)
Format: biochemical
Conditions: At 1 μM

| molecule | inhibition at 1 µM |
| --- | --- |
| CSc1ccc(NC(=O)Nc2ccc(-c3cc(C(=O)N[C@H](C(=O)O)C(C)C)on3)cc2)cc1 [Example 197] | 75 to 100% |
| CC(C)[C@H](NC(=O)c1cc(-c2ccc(NC(=O)Nc3cc(F)ccc3F)cc2)no1)C(=O)O [Example 199] | 75 to 100% |
| COC(=O)[C@H](C(C)C)N(C)C(=O)c1cc(-c2ccc(NC(=O)Nc3ccc(F)cc3)cc2)no1 [Example 307] | 50 to 75% |
| CC(C)[C@@H](NC(=O)c1cc(-c2ccc(NS(=O)(=O)c3cc(F)cc(F)c3)cc2)no1)C(=O)O [Example 320] | 0 to 50% |
| CC(C)[C@H](NC(=O)c1cc(-c2ccc(NC(=O)Nc3ccc4c(c3)OCO4)cc2)no1)C(=O)O [Example 177] | 75 to 100% |
| O=C(Nc1ccc(-c2cc(C(=O)N3CCC[C@H]3C(=O)O)on2)cc1)Nc1ccccc1F [Example 262] | 50 to 75% |
| COC(=O)[C@H](C(C)C)N(C)C(=O)c1cc(-c2ccc(NC(=O)Nc3cccc(C(F)(F)F)c3)cc2)no1 [Example 309] | 50 to 75% |

----------
Target: hDGAT1 (Homo sapiens, UniProt O75907)
Construct: host or cells: Sf9 insect cells (baculovirus); microsomal preparation
Sequence (O75907 whole entry): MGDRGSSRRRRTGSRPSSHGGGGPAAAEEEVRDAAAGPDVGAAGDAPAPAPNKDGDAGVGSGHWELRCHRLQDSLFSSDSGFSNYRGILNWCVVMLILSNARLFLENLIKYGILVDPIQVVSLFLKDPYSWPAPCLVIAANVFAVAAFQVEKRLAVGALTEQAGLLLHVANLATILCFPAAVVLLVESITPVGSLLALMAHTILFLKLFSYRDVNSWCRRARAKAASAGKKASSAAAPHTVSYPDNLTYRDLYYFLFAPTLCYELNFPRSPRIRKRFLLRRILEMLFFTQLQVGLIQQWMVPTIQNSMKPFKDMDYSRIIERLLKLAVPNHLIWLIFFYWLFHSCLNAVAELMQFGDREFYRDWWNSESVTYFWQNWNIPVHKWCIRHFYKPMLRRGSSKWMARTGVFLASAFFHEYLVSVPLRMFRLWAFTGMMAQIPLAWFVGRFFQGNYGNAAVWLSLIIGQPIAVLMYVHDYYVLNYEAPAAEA
Assay: In-vitro DGAT1 assay (hDGAT1 microsomes from Sf9 cells, 14C oleoyl CoA, triglyceride formation)
Format: biochemical
Details: At 10 μM
measured_metric: inhibition at 10 µM

| compound | measured_metric | experimental_value |
| --- | --- | --- |
| CC(C)[C@H](NC(=S)c1cc(-c2cccc(Nc3nc4ccc(F)cc4s3)c2)no1)C(=O)O [Example 25] | inhibition at 10 µM | 0 to 50% |
| CCOC(=O)c1cc(-c2ccc(Nc3nc4ccc(F)cc4s3)cc2)no1 [Example 1] | inhibition at 10 µM | 50 to 75% |
| COC(=O)[C@@H](NC(=O)c1cc(-c2cccc(Nc3nc4ccc(F)cc4s3)c2)no1)C(C)C [Example 22] | inhibition at 10 µM | 0 to 50% |
| NC(=O)c1cc(-c2ccc(Nc3nc4ccc(F)cc4s3)cc2)no1 [Example 3] | inhibition at 10 µM | 0 to 50% |
| COC[C@H](NC(=S)c1cc(-c2cccc(Nc3nc4ccc(F)cc4s3)c2)no1)C(=O)OC [Example 30] | inhibition at 10 µM | 0 to 50% |
| COC(=O)C(NC(=O)c1cc(-c2ccc(NC(=O)Nc3c(F)cccc3F)cc2)no1)C(C)C (stereo not shown) [Example 123] | inhibition at 10 µM | 50 to 75% |
| COC(=O)[C@@H](NC(=NO)c1cc(-c2cccc(Nc3nc4ccc(F)cc4s3)c2)no1)C(C)C [Example 26] | inhibition at 10 µM | 0 to 50% |
| O=C(O)C1(NC(=S)c2cc(-c3ccc(Nc4nc5ccc(F)cc5s4)cc3)no2)CCCC1 [Example 65] | inhibition at 10 µM | 0 to 50% |
| COC(=O)CNC(=S)c1cc(-c2ccc(Nc3nc4ccc(F)cc4s3)cc2)no1 [Example 60] | inhibition at 10 µM | 0 to 50% |
| O=C(N[C@@H](CO)C(=O)O)c1cc(-c2ccc(Nc3nc4ccc(F)cc4s3)cc2)no1 [Example 10] | inhibition at 10 µM | 50 to 75% |
| O=C(O)c1cc(-c2cccc(Nc3nc4ccc(F)cc4s3)c2)no1 [Example 21] | inhibition at 10 µM | 0 to 50% |
| CC(C)[C@H](NC(=O)c1cc(-c2ccc(NC(=O)Nc3ccccc3)cc2)no1)C(=O)O [Example 77] | inhibition at 10 µM | 75 to 100% |
| COC(=O)C(NC(=O)c1cc(-c2ccc(NC(=O)Nc3ccc(OC)cc3)cc2)no1)C(C)C (stereo not shown) [Example 127] | inhibition at 10 µM | 0 to 50% |
| Cc1ccc(NC(=O)Nc2ccc(-c3cc(C(=O)NC(C(=O)O)C(C)C)on3)cc2)cc1 (stereo not shown) [Example 126] | inhibition at 10 µM | 75 to 100% |
| CC(C)[C@H](NC(=O)c1c(-c2ccc(Nc3nc4ccc(F)cc4s3)cc2)noc1-c1ccccc1)C(=O)O [Example 69] | inhibition at 10 µM | 0 to 50% |
| COC(=O)[C@H](CC(C)C)NC(=O)c1cc(-c2ccc(NC(=O)NC3CCCCC3)cc2)no1 [Example 82] | inhibition at 10 µM | 0 to 50% |
| CC(NC(=O)c1cc(-c2ccc(NC(=O)Nc3ccc(F)cc3)cc2)no1)C(=O)O (stereo not shown) [Example 116] | inhibition at 10 µM | 75 to 100% |
| COC[C@H](NC(=NO)c1cc(-c2cccc(Nc3nc4ccc(F)cc4s3)c2)no1)C(=O)O [Example 33] | inhibition at 10 µM | 0 to 50% |
| COC(=O)[C@@H](NC(=O)c1c(-c2ccc(Nc3nc4ccc(F)cc4s3)cc2)noc1-c1ccccc1)C(C)C [Example 68] | inhibition at 10 µM | 0 to 50% |
| COC(=O)[C@H](NC(=O)c1cc(-c2ccc(Nc3nc4ccc(F)cc4s3)cc2)no1)C(C)C [Example 38] | inhibition at 10 µM | 50 to 75% |
| CC(C)C(NC(=O)c1cc(-c2ccc(NC(=O)NCc3ccccc3)cc2)no1)C(=O)O (stereo not shown) [Example 108] | inhibition at 10 µM | 50 to 75% |
| COC[C@H](NC(=O)c1cc(-c2ccc(Nc3nc4ccc(F)cc4s3)cc2)no1)C(=O)O [Example 13] | inhibition at 10 µM | 75 to 100% |
| CC(C)C[C@H](NC(=S)c1cc(-c2ccc(Nc3nc4ccc(F)cc4s3)cc2)no1)C(=O)O [Example 49] | inhibition at 10 µM | 50 to 75% |
| Cc1cc(NC(=O)Nc2ccc(F)cc2F)ccc1-c1cc(C(=O)NC(C(=O)O)C(C)C)on1 (stereo not shown) [Example 138] | inhibition at 10 µM | 75 to 100% |
| COC(=O)[C@@H](NC(=O)c1cc(-c2ccc(NC(=O)Nc3ccc(F)cc3)cc2)no1)C(C)C [Example 84] | inhibition at 10 µM | 50 to 75% |
| CC(C)C(NC(=O)c1cc(-c2ccc(NC(=O)Nc3c(F)cccc3F)cc2)no1)C(=O)O (stereo not shown) [Example 124] | inhibition at 10 µM | 75 to 100% |
| COC(=O)[C@H](CC(C)C)NC(=O)c1onc(-c2ccc(NC(=O)Nc3ccccc3)cc2)c1-c1ccccc1 [Example 90] | inhibition at 10 µM | 0 to 50% |
| Cc1cc(-c2cc(C(=O)NC(CC(C)C)C(=O)O)on2)ccc1NC(=O)Nc1c(F)cccc1F (stereo not shown) [Example 100] | inhibition at 10 µM | 0 to 50% |
| COC(=O)C(C)NC(=O)c1cc(-c2ccc(NC(=O)Nc3c(F)cccc3F)c(C)c2)no1 (stereo not shown) [Example 101] | inhibition at 10 µM | 0 to 50% |
| COC[C@H](NC(=O)c1cc(-c2ccc(Nc3nc4ccc(F)cc4s3)cc2)no1)C(=O)OC [Example 12] | inhibition at 10 µM | 50 to 75% |
| COC(=O)[C@@H](NC(=O)c1cc(-c2ccc(NC(=O)Nc3ccccc3)cc2)no1)C(C)C [Example 76] | inhibition at 10 µM | 50 to 75% |
